Counter-ions that a name gives are not always drawn.
measurement name: melting point

Below are worked cases with known answers.
compound	melting point
O=C(Nc1ccc(-c2ccc(C(=O)N3CCN4CCC3CC4)o2)cc1)Nc1ccccc1[N+](=O)[O-] (as salt: fumaric acid salt)	198 to 202 °C
CCNC(=O)Nc1ccc(-c2ccc(C(=O)N3CCN4CCC3CC4)o2)cc1 (as salt: fumaric acid salt)	167 to 171 °C
O=C(Nc1ccc(-c2ccc(C(=O)N3CCN4CCC3CC4)o2)cc1)Nc1ccccc1Cl	200 to 211 °C (dec.)
Nc1ccccc1NC(=O)Nc1ccc(-c2ccc(C(=O)N3CCN4CCC3CC4)o2)cc1	174 °C
CCNC(=O)Nc1cccc(-c2ccc(C(=O)N3CCN4CCC3CC4)o2)c1 (as salt: fumaric acid salt)	158 to 161 °C

Query: I'd like to know its melting point. The compound in question is O=C(Nc1ccc(-c2ccc(C(=O)N3CCN4CCC3CC4)o2)cc1)c1ccc([N+](=O)[O-])cc1 (as salt: hydrochloric acid salt)
Response: 195 to 210 °C

Query: Then this compound: CCNC(=O)Nc1ccccc1NC(=O)Nc1ccc(-c2ccc(C(=O)N3CCN4CCC3CC4)o2)cc1 (as salt: fumaric acid salt)
Response: 162.5 to 165.5 °C

Query: Then this compound: "O=C(Nc1ccc(-c2ccc(C(=O)N3CCN4CCC3CC4)o2)cc1)Nc1ccccc1F"
Response: 241 °C (dec.)

Query: Then this compound: O=C(Nc1ccc(-c2ccc(C(=O)N3CCN4CCC3CC4)o2)cc1)c1ccncc1 (as salt: fumaric acid salt)
Response: 250 to 253.5 °C

Every entry's value here was drawn from patent US20100130482A1.
